Assay: NCI Yeast Anticancer Drug Screen. Data for the mlh1 rad18 strain (AID 175)
Settings: S. cerevisiae mlh1 rad18 strain growth inhibition; at 5.0 µM (retest, dose inferred, filed as 0.5); active compounds read high
Compounds without any hit were thinned out: in the full panel of roughly 79,000, 15% have a hit.
test-readout: growth inhibition (%)
Give the quantity in %, number only.

Q: Recorded growth inhibition of "O=C1OC(c2ccc(O)cc2)(c2ccc(O)cc2)c2cccc3cccc1c23" , please.
Ans: 23

Q: Recorded growth inhibition of CC1CC[P+](c2ccccc2)(c2ccccc2)c2c1ccc1ccccc21 (centres undefined) , please.
Ans: 64

Q: Recorded growth inhibition of "CCOc1ccc(NC(=O)/C(=C\c2ccc(C)cc2)C(C)=O)cc1" , please.
Ans: -3

Q: Recorded growth inhibition of "COc1cc(/C=C/C(=O)NCCCCN=[N+]=[N-])ccc1OCc1ccccc1" , please.
Ans: -3

Q: Recorded growth inhibition of "COc1ccc(-c2c(C#N)c(-c3ccc(C)cc3)n(NS(=O)(=O)c3ccccc3)c(=O)c2C#N)cc1" , please.
Ans: 91

Q: Recorded growth inhibition of "C[C@@H](O)[C@H]1CC[C@H]2[C@@H]3CCC4=C/C(=N/O)CC[C@]4(C)[C@H]3CC[C@]12C" , please.
Ans: 54

Q: Recorded growth inhibition of "Oc1cccc2c1-c1ccccc1C2" , please.
Ans: 9

Q: Recorded growth inhibition of "O=C1c2ccccc2C(=O)c2c(O)c(O)cc(O)c21" , please.
Ans: 99

Q: Recorded growth inhibition of "Cc1cc2c(C(C)C)c(O)c(O)c(C=Nc3ccccc3S)c2c(O)c1-c1c(C)cc2c(C(C)C)c(O)c(O)c(C=Nc3ccccc3S)c2c1O" , please.
Ans: -5

Q: Recorded growth inhibition of "O=c1c(Cl)c(Cl)cnn1-c1ccccc1" , please.
Ans: 8

Q: Recorded growth inhibition of "Cc1n(-c2ccccc2)c2c([n+]1Cc1ccc([N+](=O)[O-])cc1)C(=O)c1ccccc1C2=O" , please.
Ans: -8

Q: Recorded growth inhibition of "COc1ccc(/C=C2\C=Nc3ccccc32)cc1" , please.
Ans: 12

Q: Recorded growth inhibition of CC(C)(S)C(N)C(=O)O (centres undefined) , please.
Ans: -3

Q: Recorded growth inhibition of "O=C(Nc1ccc(Cl)cc1)c1ccccc1O" , please.
Ans: 4

====

Assay: NCI Yeast Anticancer Drug Screen. Data for the rad50 strain (AID 155);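 further: 0% = growth of vehicle-only cultures of the same strain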
Conditions: S. cerevisiae rad50 strain growth inhibition; at 5.0 µM (retest, dose inferred, filed as 0.5)
Compounds without any hit were thinned out: in the full panel of roughly 79,000, 15% have a hit. The source made the active and inactive calls. Cut-off read from the data, not from the text of the source: active = growth inhibition above about 70%; inactive = the rest.
API: response.call in YES for active, NO for inactive

Q: Just curious, what result did "CCCCCCCCCCCCCCCC[N+](C)(C)Cc1cnc[nH]1" get here?
Ans: YES

Q: Just curious, what result did "O=c1[nH]c(SCc2c(Cl)c(Cl)c(Cl)c(Cl)c2Cl)nc(=S)[nH]1" get here?
Ans: NO

Q: Just curious, what result did "Cc1nnc(S(=O)(=O)c2ccc(N=Nc3c(N)nc(N)nc3N)cc2)s1" get here?
Ans: NO

Q: Just curious, what result did O=C(NC(C(=O)O)c1ccccc1)OCc1ccccc1 (stereo unspecified) get here?
Ans: NO

Q: Just curious, what result did "CCN(CC)CCNc1n[n+]([O-])c2cc([N+](=O)[O-])ccc2[n+]1[O-]" get here?
Ans: NO

Q: Just curious, what result did "COc1c(CBr)c(CBr)c(OC)c2c1C(=O)c1ccccc1C2=O" get here?
Ans: NO

====

Test: NCI Yeast Anticancer Drug Screen. Data for the bub3 strain (AID 167)
Settings: S. cerevisiae bub3 mutant strain, at 5.0 µM (retest, dose inferred, filed as 0.5)
Compounds without any hit were thinned out: in the full panel of roughly 79,000, 15% have a hit. The source made the active and inactive calls. Cut-off read from the data, not from the text of the source: active = growth inhibition above about 70%; inactive = the rest.
API: response.call in 1 for active, -1 for inactive

Q: Just curious, what result did "O=C(O)c1ccc(C(c2ccccc2)c2ccccc2)cc1" get here?
Ans: -1

Q: Just curious, what result did "Cc1nc(N=C(N)N)nc2ccc3ccccc3c12" get here?
Ans: -1

Q: Just curious, what result did "COC(=O)C#CC(=O)OC" get here?
Ans: -1

Q: Just curious, what result did "NC(=O)c1cc(Br)cc(Br)c1O" get here?
Ans: -1

Q: Just curious, what result did COC(=O)C(CC(C)=O)CS(=O)(=O)CC(=O)C(=O)Nc1cccc([N+](=O)[O-])c1 (stereo not drawn) get here?
Ans: -1

Q: Just curious, what result did CCC1CCCC(=O)C1 (stereo not drawn) get here?
Ans: -1

Q: Just curious, what result did CCCCCCCCCCCCCCCCOP(=O)(O)OCC(NC(C)=O)C(=O)O (stereo not drawn) get here?
Ans: -1

Q: Just curious, what result did "O=C(O)c1ccc(Nc2cnc3ccc(C(F)(F)F)cc3n2)cc1" get here?
Ans: -1

Q: Just curious, what result did "CCc1nc(N)nc(N)c1-c1ccc(Cl)c(N=[N+]=[N-])c1" get here?
Ans: -1

Q: Just curious, what result did Cc1c(Cl)cccc1NC(=O)CC1Sc2ccccc2NC1=O (stereo not drawn) get here?
Ans: -1

Q: Just curious, what result did "O=c1[nH]c2cc([N+](=O)[O-])ccc2nc1/C=C(\O)c1ccc([N+](=O)[O-])cc1" get here?
Ans: -1

Q: Just curious, what result did "CC(C)(C)OC(=O)NCCc1cccc2c1oc1c(CCC(=O)O)cccc12" get here?
Ans: -1

Q: Just curious, what result did CO[C@H](C(=O)[C@@H](O)[C@@H](C)O)[C@@H]1Cc2cc3cc(OC4CC(OC5CC(O)C(O)C(C)O5)C(O)C(C)O4)c(C)c(O)c3c(O)c2C(=O)[C@H]1OC1CC(OC2CC(OC3CC(C)(O)C(O)C(C)O3)C(O)C(C)O2)C(O)C(C)O1 (stereo partly drawn) get here?
Ans: -1

Q: Just curious, what result did "CC(=O)Nc1cc(C)ccc1C" get here?
Ans: -1

Q: Just curious, what result did COc1ccc(/C=C2\CCCC(CN(C)C)C2=O)cc1 (stereo not drawn) get here?
Ans: -1

Q: Just curious, what result did "CCCCCCCN" get here?
Ans: -1

Q: Just curious, what result did "Oc1ccc(/C=N/NC(=S)NN2CCOCC2)nc1" get here?
Ans: -1

Q: Just curious, what result did "CC(C)(Cc1nocc1C(C)(C)CC#N)c1cc(CC(C)(C)C2(C)OCCO2)no1" get here?
Ans: -1

Q: Just curious, what result did "COc1cccc(NC(=S)N2CCCCC2)c1" get here?
Ans: -1

Q: Just curious, what result did "CCN(CC)CCNc1nc(NCCN(CC)CC)c2nc(-c3ccccc3)c(-c3ccccc3)nc2n1" get here?
Ans: 1

Q: Just curious, what result did COc1cccc2c1C(=O)c1c(O)c3c(c(O)c1C2=O)C[C@@](O)(C(C)=O)C[C@@H]3OC1CC(N(C)C)C(O)C(C)O1 (stereo partly drawn) get here?
Ans: 1

Q: Just curious, what result did "Fc1ccc2nc3ccccc3nc2c1" get here?
Ans: -1

Q: Just curious, what result did "c1ccc(C(c2ccccc2)n2ccnc2)cc1" get here?
Ans: -1

====

Assay: NCI Yeast Anticancer Drug Screen. Data for the rad50 strain (AID 155);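 further: 0% = growth of vehicle-only cultures of the same strain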
Conditions: S. cerevisiae rad50 strain growth inhibition; at 50.0 µM (retest, dose inferred, filed as 5.0); active compounds read high
Compounds without any hit were thinned out: in the full panel of roughly 79,000, 15% have a hit.
Please go through the items and note down their growth inhibition.
Give the quantity in %, number only.

Q: Recorded growth inhibition of "O[Si](c1ccccc1)(c1ccccc1)c1ccccc1.O[Si](c1ccccc1)(c1ccccc1)c1ccccc1.O[Si](c1ccccc1)(c1ccccc1)c1ccccc1.[O]=[V]" , please.
Ans: 64

Q: Recorded growth inhibition of "COc1cc(O)ccc1C(=S)SC" , please.
Ans: 78

Q: Recorded growth inhibition of "CCCCCCCCCCCCOS(=O)(=O)O" , please.
Ans: 29

Q: Recorded growth inhibition of "CCCCCCCCCCCCCCCC[N+](C)(C)c1nc(Cl)nc(Cl)n1" , please.
Ans: 99

Q: Recorded growth inhibition of "CCOC(=O)Nc1c(C)cc(C)c(Br)c1C" , please.
Ans: -3

Q: Recorded growth inhibition of "CCOC(=O)/C(C#N)=C\c1ccc([N+](=O)[O-])o1" , please.
Ans: 98

Q: Recorded growth inhibition of CSc1ncnc2c1ncn2C1OC(CO)C(O)C1O (stereo unspecified) , please.
Ans: 9

Q: Recorded growth inhibition of C=C1CCC[C@@H]2[C@@](C)(Cc3cc(O)ccc3O)C(C)CC[C@]12C (stereo partly specified) , please.
Ans: 97

Q: Recorded growth inhibition of "O=C(O)c1ccc2c(c1)Cc1cc([N+](=O)[O-])ccc1-2" , please.
Ans: 88

Q: Recorded growth inhibition of "CC1=CC(=Nc2ccc(N(C)C)cc2)C=CC1=O" , please.
Ans: 7

Q: Recorded growth inhibition of "CCN(CCO)CCNc1ccc(C)c2sc3ccccc3c(=O)c12" , please.
Ans: 98
